Recorded measurements of Preemergence herbicidal rating ECHCG, one per entry
Test system: ECHCG, Barnyardgrass, Echinochloa crusgalli, (L.)Beau
method_summary: Preemergence herbicidal evaluation (Example 148)
Assay type: in vivo
condition_set: rate 0.25 kg/ha, rating scale 0-9, two to four weeks after treatment
Form: value (number only, do not type unit).

CCCN(C)S(=O)(=O)NC(=O)c1cc(-n2c(=O)cc(C(F)(F)F)n(C)c2=O)c(F)cc1Cl    9.0
CC(C)N(C)S(=O)(=O)NC(=O)c1cc(-n2c(=O)cc(C(F)(F)F)n(N)c2=O)c(F)cc1Cl    2.0
CCCCN(C)S(=O)(=O)NC(=O)c1cc(-n2c(=O)cc(C(F)(F)F)n(C)c2=O)c(F)cc1Cl    5.0
CCC(C)N(C)S(=O)(=O)NC(=O)c1cc(-n2c(=O)cc(C(F)(F)F)n(C)c2=O)c(F)cc1Cl (stereo not drawn)    3.0
C#CCNS(=O)(=O)NC(=O)c1cc(-n2c(=O)cc(C(F)(F)F)n(C)c2=O)c(F)cc1Cl    3.0
Cn1c(C(F)(F)F)cc(=O)n(-c2cc(C(=O)NS(=O)(=O)NC(C)(C)C)c(Cl)cc2F)c1=O    9.0
CN(c1ccccc1)S(=O)(=O)NC(=O)c1cc(-n2c(=O)cc(C(F)(F)F)n(C)c2=O)c(F)cc1Cl    3.0
Cn1c(C(F)(F)F)cc(=O)n(-c2cc(C(=O)NS(=O)(=O)NC3CCCC3)c(Cl)cc2F)c1=O    7.0

As a next step, examine the molecule that follows.
INPUT: Sample CCCNS(=O)(=O)NC(=O)c1cc(-n2c(=O)cc(C(F)(F)F)n(C)c2=O)c(F)cc1Cl — what was its Preemergence herbicidal rating ECHCG?
OUTPUT: 9.0

----------
Test system: ECHCG, Barnyardgrass, Echinochloa crusgalli, (L.)Beau
method_summary: Preemergence herbicidal evaluation (Example 148)
Assay type: in vivo
condition_set: rate 0.25 kg/ha, rating scale 0-9, two to four weeks after treatment
Reported Preemergence herbicidal rating ECHCG values for the following molecules.
Answer using only a numeral; do not append any unit.

Some entries whose results are on file:
CC(C)N(C(C)C)S(=O)(=O)NC(=O)c1cc(-n2c(=O)cc(C(F)(F)F)n(C)c2=O)c(F)cc1Cl [Example 60]    4.0
COc1ccc(CNS(=O)(=O)NC(=O)c2cc(-n3c(=O)cc(C(F)(F)F)n(C)c3=O)c(F)cc2Cl)cc1 [Example 82]    4.0
CN(Cc1cccc(Cl)c1)S(=O)(=O)NC(=O)c1cc(-n2c(=O)cc(C(F)(F)F)n(C)c2=O)c(F)cc1Cl [Example 55]    9.0
CCOC(=O)CN(C)S(N)(=O)=O [compound 53]    8.4

Okay, now this molecule:
INPUT: Sample CNS(=O)(=O)NC(=O)c1cc(-n2c(=O)cc(C(F)(F)F)n(C)c2=O)c(F)cc1Cl [Example 56] — what was its Preemergence herbicidal rating ECHCG?
OUTPUT: 7.0

----------
Consider the following compounds and their measured Preemergence herbicidal rating ZEAMX readings.
System: ZEAMX, Field corn, Zea mays L.
method_summary: Preemergence herbicidal evaluation (Example 148)
Format: in vivo
condition_set: rate 0.25 kg/ha, rating scale 0-9, two to four weeks after treatment
Description: The scale is based upon a visual observation of plant stand, vigor, malformation, size, chlorosis and overall plant appearance as compared with a control. The herbicidal activity of the compounds of the present invention was evaluated by the following tests wherein the seeds of a variety of monocotyledonous and dicotyledonous plants were separately mixed with potting soil and planted on top of approximately one inch of soil in separate pint cups. […]
Please give the numeric answer without any surrounding text.

Take a look at these entries with their results.
Cn1c(C(F)(F)F)cc(=O)n(-c2cc(C(=O)NS(=O)(=O)NC3CCCC3)c(Cl)cc2F)c1=O    1.0
CCCNS(=O)(=O)NC(=O)c1cc(-n2c(=O)cc(C(F)(F)F)n(C)c2=O)c(F)cc1Cl    0.0
CN(Cc1cccc(Cl)c1)S(=O)(=O)NC(=O)c1cc(-n2c(=O)cc(C(F)(F)F)n(C)c2=O)c(F)cc1Cl    1.0
COc1cccc(CN(C)S(=O)(=O)NC(=O)c2cc(-n3c(=O)cc(C(F)(F)F)n(C)c3=O)c(F)cc2Cl)c1    0.0

INPUT: API: value(readout=Preemergence herbicidal rating ZEAMX, system=ZEAMX, Field corn, Zea mays L.) for record CC(C)CCNS(=O)(=O)NC(=O)c1cc(-n2c(=O)cc(C(F)(F)F)n(C)c2=O)c(F)cc1Cl
OUTPUT: 0.0

INPUT: So what Preemergence herbicidal rating ZEAMX did CCOC(=O)CN(C)S(N)(=O)=O get with ZEAMX, Field corn, Zea mays L.?
OUTPUT: 4.3

INPUT: ZEAMX, Field corn, Zea mays L. / Preemergence herbicidal rating ZEAMX / Cn1c(C(F)(F)F)cc(=O)n(-c2cc(C(=O)NS(=O)(=O)NCc3cccs3)c(Cl)cc2F)c1=O : value?
OUTPUT: 1.0

INPUT: Short answer please: Preemergence herbicidal rating ZEAMX, ZEAMX, Field corn, Zea mays L., entry Cn1c(C(F)(F)F)cc(=O)n(-c2cc(C(=O)NS(=O)(=O)NC(C)(C)C)c(Cl)cc2F)c1=O
OUTPUT: 1.0
